Target: SARS-CoV-2 spike ectodomain (S-ecto), Wuhan-hu-1 strain, 2P (SARS-CoV-2, Wuhan-hu-1, UniProt P0DTC2, 2P mutation at residues 986 and 987 | 2P mutation at residues 986 and 987, biotin (NHS-sulfo-LC-Biotin, EZ-link biotinylation kit))
Assay: BLI
Conditions: both partners purified
Please provide measured koff for the entries that follow.
Write the numeric value and append its unit.

Worked examples follow.
humanized SW186 H2L4 (antibody, V domains shown) VH: QVQLVQSGAEVKKPGSSVKVSCKASGVAFSSYWMNWVRQAPGQGLEWIGQIYPGDGDTNYNGKFKGRVTITADKSTSTAYMELSSLRSEDTAVYFCARGFIATVEETMDYWGQGTLVTVSS VL: DIQMTQSPSSLSASVGDRVTITCRASQDISNYLNWYQQKPGKTVKLLIYYTSRLHSGVPSRFSGSGSGTDYTLTISSLQPEDFATYFCQQSHTLPWTFGGGTKLEIK    0.000603 s⁻¹
humanized SW186 H3L1 (antibody, V domains shown) VH: QVQLVQSGAEVKKPGSSVKVSCKASGVAFSSYWMNWVRQAPGQGLEWIGQIYPGDGDTNYNGKFKGRATITADKSTSTAYMELSSLRSEDTAVYFCARGFIATVEETMDYWGQGTLVTVSS VL: DIQMTQSPSSLSASVGDRVTITCRASQDISNYLNWYQQKPGKAPKLLIYYTSRLHSGVPSRFSGSGSGTDFTLTISSLQPEDFATYYCQQSHTLPWTFGGGTKLEIK    0.00119 s⁻¹
humanized SW186 H1L3 (antibody, V domains shown) VH: QVQLVQSGAEVKKPGSSVKVSCKASGVAFSSYWMNWVRQAPGQGLEWMGQIYPGDGDTNYNGKFKGRVTITADKSTSTAYMELSSLRSEDTAVYYCARGFIATVEETMDYWGQGTLVTVSS VL: DIQMTQSPSSLSASVGDRVTITCRASQDISNYLNWYQQKPGKAPKLLIYYTSRLHSGVPSRFSGSGSGTDYTLTISSLQPEDFATYFCQQSHTLPWTFGGGTKLEIK    0.000598 s⁻¹

For each of the binders below, state koff.
1. humanized SW186 H3L4 (antibody, V domains shown) VH: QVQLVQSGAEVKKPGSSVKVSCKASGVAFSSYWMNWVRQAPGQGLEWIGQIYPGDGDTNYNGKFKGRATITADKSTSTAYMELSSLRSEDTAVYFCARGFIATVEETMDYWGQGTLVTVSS VL: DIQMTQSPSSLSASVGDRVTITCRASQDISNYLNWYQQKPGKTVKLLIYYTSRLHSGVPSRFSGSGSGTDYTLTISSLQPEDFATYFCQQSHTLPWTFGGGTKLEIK
2. humanized SW186 H3L3 (antibody, V domains shown) VH: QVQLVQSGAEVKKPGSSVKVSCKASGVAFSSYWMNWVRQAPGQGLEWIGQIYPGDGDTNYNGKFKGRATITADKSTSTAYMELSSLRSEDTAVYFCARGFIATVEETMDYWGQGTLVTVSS VL: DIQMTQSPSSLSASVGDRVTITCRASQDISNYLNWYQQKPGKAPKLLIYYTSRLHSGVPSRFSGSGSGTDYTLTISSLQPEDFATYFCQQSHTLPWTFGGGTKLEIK

1. 0.000469 s⁻¹
2. 0.000761 s⁻¹
